Target: α7 nAChR (Rattus norvegicus)
Construct: brains (whole brain minus cerebellum) are dissected quickly, weighed and homogenized; from tissue; host or cells: rat brain (whole brain minus cerebellum) membrane homogenate
Assay: [3H]-MLA competition binding assay in rat brain membranes
pKi: −log10 of the molar value. Where a name gives a salt, the structure may show the parent alone.
So basically: pKi at 8 or higher? That is Condition met. Lower than 8? That is Condition not met.

Solved cases below.
O=C(N[C@H]1CN2CCC1CC2)c1cc2cccnc2s1 [Example 13, dihydrochloride]
Condition not met
O=C(N[C@H]1CN2CCC1CC2)c1cc2ccsc2cn1 [Example 22, dihydrochloride]
Condition met
O=C(N[C@H]1CN2CCC1CC2)c1cc2c(Cl)coc2cn1 [Example 28, dihydrochloride]
Condition met
Cc1cc2cc(C(=O)N[C@H]3CN4CCC3CC4)ncc2o1 [Example 6, dihydrochloride]
Condition not met
O=C(N[C@H]1CN2CCC1CC2)c1cnc2ccsc2c1 [Example 20, dihydrochloride]
Condition not met

Ask: Has O=C(N[C@H]1CN2CCC1CC2)c1cc2occc2cn1 [Example 30, dihydrochloride] a recorded pKi greater than or equal to 8?
Result: Condition not met

====

Target: α7 nAChR (Rattus norvegicus, UniProt Q05941)
Construct: brains (whole brain minus cerebellum) are dissected quickly, weighed and homogenized; from tissue; host or cells: rat brain (whole brain minus cerebellum) membrane homogenate
Sequence (Q05941 23-502): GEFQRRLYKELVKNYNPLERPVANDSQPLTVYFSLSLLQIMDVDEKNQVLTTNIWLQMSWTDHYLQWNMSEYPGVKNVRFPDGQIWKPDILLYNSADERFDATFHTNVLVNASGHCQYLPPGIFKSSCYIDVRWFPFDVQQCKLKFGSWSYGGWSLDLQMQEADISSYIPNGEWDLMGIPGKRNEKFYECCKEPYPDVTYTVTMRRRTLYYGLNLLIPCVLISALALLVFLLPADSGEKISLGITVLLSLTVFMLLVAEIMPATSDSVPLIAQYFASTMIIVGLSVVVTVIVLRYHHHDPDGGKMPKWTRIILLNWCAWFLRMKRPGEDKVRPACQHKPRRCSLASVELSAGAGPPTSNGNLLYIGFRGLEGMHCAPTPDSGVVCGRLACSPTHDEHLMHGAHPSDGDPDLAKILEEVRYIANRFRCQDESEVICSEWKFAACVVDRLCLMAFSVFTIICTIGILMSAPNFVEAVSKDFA
Test: [3H]-MLA competition binding assay in rat brain membranes
Conditions: competition with approximately 3.0 to 4.0 nM [3H]-MLA, rat brain (whole brain minus cerebellum) homogenate, 1 hour at 25° C, Cheng-Prusoff; read-out: Ki Value
Counter-ions that a name gives are not always drawn.
property: pKi
Numbers only, as −log10 of the molar value.

O=C(N[C@H]1CN2CCC1CC2)c1cc2cnccc2o1
5.89
O=C(N[C@H]1CN2CCC1CC2)c1cc2ccoc2c(Cl)n1 [Example 3, hydrochloride]
5.65
O=C(N[C@H]1CN2CCC1CC2)c1cc2sccc2cn1 [Example 23, dihydrochloride]
8.30

Moving on to another molecule below.
Ask: Form field - read-out: pKi; system: α7 nAChR (Rattus norvegicus, UniProt Q05941); submitted item: O=C(N[C@H]1CN2CCC1CC2)c1cc2cnccc2s1 [Example 21, dihydrochloride]
Result: 6.57

====

Field: log10 of Ki. Provide a value for each of the compounds that follow.
Molecular target: α7 nAChR (Rattus norvegicus)
Construct: brains (whole brain minus cerebellum) are dissected quickly, weighed and homogenized; from tissue; host or cells: rat brain (whole brain minus cerebellum) membrane homogenate
Experiment: [3H]-MLA competition binding assay in rat brain membranes
Structures can show the parent of a compound that is named as a salt.
Values are log10 of Ki in nM.

Solved cases below.
O=C(N[C@H]1CN2CCC1CC2)c1cc2c(Br)csc2cn1
0.95
Cc1coc2cnc(C(=O)N[C@@H]3C4CCN(CC4)[C@H]3C)cc12 [Example 34, dihydrochloride]
1.18
C[C@H]1[C@H](NC(=O)c2cc3ccoc3cn2)C2CCN1CC2 [Example 33, dihydrochloride]
1.18

Each compound below has a reported value. Please supply its log10 of Ki.
1. O=C(N[C@H]1CN2CCC1CC2)c1ccc2sccc2n1 [Example 19, dihydrochloride]
2. C[C@H]1[C@H](NC(=O)c2cc3ccsc3cn2)C2CCN1CC2 [Example 35, dihydrochloride]
3. O=C(N[C@H]1CN2CCC1CC2)c1cc2c(Br)coc2cn1
4. O=C(N[C@H]1CN2CCC1CC2)c1cc2cscc2cn1 [Example 40, methanesulfonate]
5. C[C@H]1[C@H](NC(=O)c2cc3sccc3cn2)C2CCN1CC2 [Example 36, dihydrochloride]
6. O=C(N[C@H]1CN2CCC1CC2)c1cc2ccncc2s1 [Example 17, dihydrochloride]

Result:
2.44
1.26
0.60
1.40
1.08
1.81
